FYI, the data here is from the supplement of paper PMC11780869.

# Test system: Bacillus subtilis
# experiment_summary: cleaved RNA product abundance (RNA/gDNA barcode ratio) relative to median wild-type variant (ratio to wild type); higher = more accumulation of the downstream cleavage product
# stated_conditions: experiment (reporter, strain, medium): exp 4a: truncated aprE reporter, strain BJT201 with 2% xylose (RNase J1 expressed); cleavage site: cggR-gapA (positions -7 to +36 mutated)
# if value of cleaved RNA product abundance reaches 0.2, tag condition met; if it stays below, tag condition not met

[Q] Reported cleaved RNA product abundance reaches at least 0.2 for ACAGACGAAGGAGCCGCAAAGAAGTTATTAAGGGATGAATAATCCATCAATTTAAATATCTCTCACTTATTTAAA ?
[A] condition not met

[Q] Reported cleaved RNA product abundance reaches at least 0.2 for ACAGACGAAGGAGCCGCAAAGAAGTGATTAAGGGATGCATAATCCCTCAATATAAATATCTCTCACTTATTTAAA ?
[A] condition met

[Q] Reported cleaved RNA product abundance reaches at least 0.2 for ACAGACGAAGGAGCCGCAAAGAAGTAATTAAGGGATGAATAATCACTCAATATAAATATCTCTCACTTATTTAAA ?
[A] condition not met

[Q] Reported cleaved RNA product abundance reaches at least 0.2 for ACAGACGAAGGAGCCGCAAAGTAGTTATTAAGGGATGAATAATCCCTCAATATACATATCTCTCACTTATTTAAA ?
[A] condition met

[Q] Reported cleaved RNA product abundance reaches at least 0.2 for ACAGACGAAGGAGCCGCATAGAAGTTATTAAGGAATGAATAATTCCTCAATATAAATATCTCTCACTTATTTAAA ?
[A] condition met

[Q] Reported cleaved RNA product abundance reaches at least 0.2 for ACAGACGAAGGAGCCGCAAAGAAGTTATTAACGGATGAATAATCCCTAAATATAAATATCTCTCACTTATTTAAA ?
[A] condition met

[Q] Reported cleaved RNA product abundance reaches at least 0.2 for ACAGACGAAGGAGCCGCAAAGAAGTTATTAAGGAATGAATAATCCCTAAATATAAATATCTCTCACTTATTTAAA ?
[A] condition not met

[Q] Reported cleaved RNA product abundance reaches at least 0.2 for ACAGACGAAGGAGCCGCAAAAAAGTTATTCAGGGATGAATAATCCCTCAATATAAATATCTCTCACTTATTTAAA ?
[A] condition met

[Q] Reported cleaved RNA product abundance reaches at least 0.2 for ACAGACGAAGGAGCCGCAATGAAGATATTAAGGGATGAATAATCCCTCAATATAAATATCTCTCACTTATTTAAA ?
[A] condition met

[Q] Reported cleaved RNA product abundance reaches at least 0.2 for ACAGACGAAGGAGCCGCAAAGAAGTTATTAAGGGATGAATAATCCATCAATAGAAATATCTCTCACTTATTTAAA ?
[A] condition not met

[Q] Reported cleaved RNA product abundance reaches at least 0.2 for ACAGACGAAGGAGCCGCAAAGAAGTTATTAAGGGATTAATAATCCCTCAATATAAATAACTCTCACTTATTTAAA ?
[A] condition met
